method summary: Stability in the simulated gastro-intestinal fluid (sGIF)
experimental setup: 0.5% pepsine in 0.1N aqueous HCl, 37° C.; acceptance: NLT 80% of the derivative still intact after 4 hrs
endpoint name: Stable in sGIF

INSERT INTO measurements (molecule, value_observed) VALUES
  ('CC(C)=CCC/C(C)=C/COc1ccc2c3c1OC1C(O)CCC4(O)C(C2)N(CC2CCC2)CCC314 (centres unmarked) [NB-20]', 'No'),
  ('C/C=C/C=C/C(=O)Oc1ccc2c3c1OC1C(OC(C)=O)CCC4(O)C(C2)N(CC2CCC2)CCC314 (centres unmarked) [NB-76]', 'Yes'),
  ('C/C=C(\C)C(=O)Oc1ccc2c3c1OC1C(O)CCC4(O)C(C2)N(CC2CCC2)CCC314 (centres unmarked) [NB-52]', 'Yes'),
  ('CC(C)=CCC/C(C)=C/CC/C(C)=C/COc1ccc2c3c1OC1C(O)CCC4(O)C(C2)N(CC2CCC2)CCC314 (centres unmarked) [NB-28]', 'No');

For the molecule shown here, C/C=C/C=C/C(=O)Oc1ccc2c3c1OC1C(O)CCC4(O)C(C2)N(CC2CCC2)CCC314.Cl (centres unmarked) [NB-56] , give the reported Stable in sGIF.
Yes
